These data points were gathered from PubChem BioAssay (NCI).

For each of the compounds below, state its growth inhibition.
assay: NCI Yeast Anticancer Drug Screen. Data for the rad18 strain (AID 177); conditions: S. cerevisiae rad18 mutant growth inhibition; at 11.0 µM; stronger effect = higher value
About 79,000 compounds went through this panel and 15% of them were active in at least one assay; those are over-represented in the sample as a whole.
Give bare numbers, in %.

Some compounds with known growth inhibition results, for comparison:
> print(dat)
                                   compound           quantity  testresult
1                    CC(C)(C(=O)NN)c1ccccc1  growth inhibition          46
2  COc1ccc2cc(CN3CCC(C4CCN(Cc5ccc6cc(OC)ccc6c5)CC4)CC3)ccc2c1  growth inhibition           3
3  S=C1NC2=C(CSC/C2=C\c2ccc(Cl)cc2)C(c2ccc(Cl)cc2)N1 (stereo not drawn)  growth inhibition          28
4  CN(C)c1ccc(C(c2ccc(Cl)cc2)c2ccc(N(C)C)cc2)cc1  growth inhibition          97
5  CCN(CC)CCSc1c2ccccc2nc2cc(NCC(=O)Nc3ccccc3-c3ccccc3NC(=O)CNc3ccc4c(SCCN(CC)CC)c5ccccc5nc4c3)ccc12  growth inhibition          11

For every record below, what is its growth inhibition?
1. Cc1ccc(S(=O)(=O)N/N=C/c2c(O)ccc3ccccc23)cc1
2. CC1=Cc2ccc(C)cc2C(=O)C1=O

Reply text:
1. 87
2. 66

* * *

experiment: NCI Yeast Anticancer Drug Screen. Data for the mgt1 strain (AID 153); conditions: S. cerevisiae mgt1 mutant growth inhibition; at 1.2 µM; stronger effect = higher value
The panel holds about 79,000 compounds, 15% with a hit somewhere; the sample as a whole holds those more often.
Give growth inhibition for every item shown.
Answers are plain numbers, in %.

Answered cases to consult:
> print(dat)
                                   compound           quantity  unitstring  testresult
1  CCCC#CCOC(=O)c1cc([N+](=O)[O-])cc([N+](=O)[O-])c1  growth inhibition           %          -5
2  CC1(C)CC(=O)C(C(CC(c2ccccc2)c2cc3c(cc2O)OCO3)C2=C(O)CC(C)(C)CC2=O)=C(O)C1 (stereo not drawn)  growth inhibition           %          -2
3      C=Cc1c(C)c(O)cc2c1-c1ccc(O)c(C)c1CC2  growth inhibition           %         -18
4  Cc1ccc(C(C)C)c(C(=C2C=CC(=[N+](C)C)C=C2)c2c(C(C)C)ccc(C)c2O)c1O  growth inhibition           %          -2
5           CCN(CC)c1cccc(Nc2nc3ccccc3s2)c1  growth inhibition           %           6
6  CCc1nc2ccc(N=Nc3c(O)ccc4ccccc34)cc2[nH]1  growth inhibition           %           0
7  O=C1C=CC(=Nc2ccc3c(c2)Cc2cc(Cl)ccc2-3)O1  growth inhibition           %           2
8     OC1C#CCSCC#C/C=C\1 (stereo not drawn)  growth inhibition           %           9

Respectfully, I request growth inhibition for each entry included below.
1. CC[C@@]1(OC(=O)CN(C)C)C(=O)OCc2c1cc1n(c2=O)Cc2cc3ccccc3nc2-1
2. CCCCCCCCCCCCCCCCOCC(Cl)COP(=O)(O)OP(=O)(O)OCC1OC(n2cnc3c(N)ncnc32)C(O)C1O (stereo not drawn)

Reply text:
1. -1
2. 15
